molecules and their reported IC50
# System: Plasmodium falciparum strain 3D7A
# METHOD: In vitro screening protocol II, [3H] hypoxanthine incorporation IC50 assay, 3D7A
# Assay type: cell-based
# RECORDED_CONDITIONS: Plasmodium falciparum, P. falciparum 3D7A

A selection of reference data follows.
| CPD_SMILES | MEASURED_ON | IC50 |
| --- | --- | --- |
| CC[C@H]1OC(=O)[C@H](C)[C@@H](O[C@H]2C[C@@](C)(OC)[C@@H](O)[C@H](C)O2)[C@H](C)[C@@H](O[C@@H]2O[C@H](C)C[C@H](N(C)C)[C@H]2O)[C@](C)(O)C[C@@H](C)CN(CCCNC(=O)/C=C/c2cnc3ccccc3c2)[C@H](C)[C@@H](O)[C@]1(C)O | Plasmodium falciparum strain 3D7A | 0.2 to 1 µg/mL |
| CC[C@H]1OC(=O)[C@H](C)[C@@H](O[C@H]2C[C@@](C)(OC)[C@@H](O)[C@H](C)O2)[C@H](C)[C@@H](O[C@@H]2O[C@H](C)C[C@H](N(C)C)[C@H]2O)[C@](C)(O)C[C@@H](C)CN(CCCNCc2ccc3ccccc3c2)[C@H](C)[C@@H](O)[C@]1(C)O | Plasmodium falciparum strain 3D7A | 0.1 to 0.2 µg/mL |

May I ask what IC50 has been recorded for "CC[C@H]1OC(=O)[C@H](C)[C@@H](O[C@H]2C[C@@](C)(OC)[C@@H](O)[C@H](C)O2)[C@H](C)[C@@H](O[C@@H]2O[C@H](C)C[C@H](N(C)C)[C@H]2O)[C@](C)(O)C[C@@H](C)CN(CCCNCc2cccc3ccccc23)[C@H](C)[C@@H](O)[C@]1(C)O" ?
0.1 to 0.2 µg/mL

----------
# System: Plasmodium falciparum strain W2
# METHOD: In vitro screening protocol II, [3H] hypoxanthine incorporation IC50 assay, W2
# Assay type: cell-based
# RECORDED_CONDITIONS: P. falciparum W2
MEASURED_METRIC: IC50 W2

Reference set (5 entries):
| MOLECULE | MEASURED_ON | ASSAY_VALUE |
| --- | --- | --- |
| CCC1OC(=O)C(C)C(OC2CC(C)(OC)C(O)C(C)O2)C(C)C(OC2OC(C)CC(N(C)C)C2O)C(C)(O)CC(C)CN(CCCNC(=O)Cc2ccc(Cl)cc2)C(C)C(O)C1(C)O.O=CO (stereo not drawn) | Plasmodium falciparum strain W2 | C (200 < X ≦ 1000) |
| CCC1OC(=O)C(C)C(OC2CC(C)(OC)C(O)C(C)O2)C(C)C(OC2OC(C)CC(N(C)C)C2O)C(C)(O)CC(C)CN(CCCNC(=O)Cc2ccccc2F)C(C)C(O)C1(C)O.O=CO (stereo not drawn) | Plasmodium falciparum strain W2 | C (200 < X ≦ 1000) |
| CC(=O)O.CC(=O)O.CC(=O)O.CCC1OC(=O)C(C)C(O)C(C)C(OC2OC(C)CC(N(C)C)C2O)C(C)(O)CC(C)CN(CCCNc2ccnc3cc(Cl)ccc23)C(C)C(O)C1(C)O (stereo not drawn) | Plasmodium falciparum strain W2 | A (X ≦ 100) |
| CC(=O)O.CC(=O)O.CCC1OC(=O)C(C)C(OC2CC(C)(OC)C(O)C(C)O2)C(C)C(OC2OC(C)CC(N(C)C)C2O)C(C)(O)CC(C)CN(CCCNCc2ccnc3ccccc23)C(C)C(O)C1(C)O (stereo not drawn) | Plasmodium falciparum strain W2 | A (X ≦ 100) |
| CC(=O)O.CC(=O)O.CC[C@H]1OC(=O)[C@H](C)[C@@H](O[C@H]2C[C@@](C)(OC)[C@@H](O)[C@H](C)O2)[C@H](C)[C@@H](O[C@@H]2O[C@H](C)C[C@H](N(C)C)[C@H]2O)[C@](C)(O)C[C@@H](C)CN(CCCNC(=O)CCc2ccccc2)[C@H](C)[C@@H](O)[C@]1(C)O | Plasmodium falciparum strain W2 | D (1000 < X ≦ 2500) |

If you can, please state the reported IC50 W2 value of CC(=O)O.CC(=O)O.CC(=O)O.CCC1OC(=O)C(C)C(OC2CC(C)(OC)C(O)C(C)O2)C(C)C(OC2OC(C)CC(N(C)C)C2O)C(C)(O)CC(C)CN(CCCNc2ccnc3cc(Cl)ccc23)C(C)C(O)C1(C)O (stereo not drawn) .
A (X ≦ 100)

Also need CCC1OC(=O)C(C)C(OC2CC(C)(OC)C(O)C(C)O2)C(C)C(OC2OC(C)CC(N(C)C)C2O)C(C)(O)CC(C)CN(CCCNC(=O)Cc2ccc(F)cc2)C(C)C(O)C1(C)O.O=CO (stereo not drawn) , thanks.
C (200 < X ≦ 1000)

Quick one: "CC[C@H]1OC(=O)[C@H](C)[C@@H](O[C@H]2C[C@@](C)(OC)[C@@H](O)[C@H](C)O2)[C@H](C)[C@@H](O[C@@H]2O[C@H](C)C[C@H](N(C)C)[C@H]2O)[C@](C)(O)C[C@@H](C)CN(CCCNC(=O)Cc2ccccc2[N+](=O)[O-])[C@H](C)[C@@H](O)[C@]1(C)O.O=CO"
D (1000 < X ≦ 2500)
